# target-or-system: rat-alpha7-nAChR (Rattus norvegicus, UniProt Q05941)
# Construct: expressed in transfected cells
# Sequence (Q05941 23-502): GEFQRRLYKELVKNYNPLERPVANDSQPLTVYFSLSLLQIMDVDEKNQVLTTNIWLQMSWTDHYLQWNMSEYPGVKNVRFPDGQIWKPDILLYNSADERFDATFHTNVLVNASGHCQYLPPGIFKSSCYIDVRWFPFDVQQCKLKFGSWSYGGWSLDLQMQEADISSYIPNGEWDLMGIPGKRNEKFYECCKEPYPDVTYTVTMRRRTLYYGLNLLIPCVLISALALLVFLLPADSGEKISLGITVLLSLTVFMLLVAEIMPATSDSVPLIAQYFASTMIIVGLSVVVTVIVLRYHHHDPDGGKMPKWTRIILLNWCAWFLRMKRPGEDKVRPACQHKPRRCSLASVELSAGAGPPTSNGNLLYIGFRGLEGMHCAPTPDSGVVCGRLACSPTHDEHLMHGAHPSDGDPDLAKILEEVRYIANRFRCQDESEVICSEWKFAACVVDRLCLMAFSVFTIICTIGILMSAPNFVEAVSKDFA
# test-description: functional FLIPR assay, alpha7 nAChR stably expressed in GH4C1 cells
# Type: cell-based
# cond: GH4C1 cell line expressing the alpha7 nAChR, concentration-response curves; read-out: Alpha 7 EC50
observable: EC50 (nM)
Record the value in nM, omitting the unit from your answer.

{"smiles-repr": "O=C(NCCCCN1CCCCC1)Nc1ccc(-c2ccccc2F)cc1", "target-or-system": "rat-alpha7-nAChR (Rattus norvegicus, UniProt Q05941)", "unit-descriptor": "nM", "EC50": 190}
{"smiles-repr": "O=C(NCCCCN1CCCCC1)Nc1ccc(-c2ccccc2)cc1", "target-or-system": "rat-alpha7-nAChR (Rattus norvegicus, UniProt Q05941)", "unit-descriptor": "nM", "EC50": 310}
{"smiles-repr": "O=C(NCCCCN1CCCCC1)Nc1ccc(-c2ccc3c(c2)OCO3)nc1", "target-or-system": "rat-alpha7-nAChR (Rattus norvegicus, UniProt Q05941)", "unit-descriptor": "nM", "EC50": 140}
{"smiles-repr": "O=C(NCCCCN1CCCCC1)Nc1ccc(-c2cccc(F)c2)nc1", "target-or-system": "rat-alpha7-nAChR (Rattus norvegicus, UniProt Q05941)", "unit-descriptor": "nM", "EC50": 180}
{"smiles-repr": "O=C(NCCCCN1CCCCC1)Nc1ccc(-c2cccnc2)nc1", "target-or-system": "rat-alpha7-nAChR (Rattus norvegicus, UniProt Q05941)", "unit-descriptor": "nM", "EC50": 590}

Would you mind telling me what EC50 value was observed for O=C(NCCCCN1CCCCC1)Nc1ccc(-c2cccnc2)cc1 ?
100

Now the compound O=C(NCCCCN1CCCCC1)Nc1ccc(-c2ccc(F)nc2)cc1
130

Now the compound O=C(NCCCCN1CCCCC1)Nc1ccc(-c2cccs2)cc1
190

Now the compound COc1ccc(-c2ccc(NC(=O)NCCCCN3CCCCC3)cc2)cc1
220

Source: patent US20100016343A1
